Test: qHTS of pediatric cancer cell lines to identify multiple opportunities for drug repurposing: Primary screen for BT-37 cells (AID 1347094)
Settings: BT-37 viability, CellTiter-Glo luminescence, 48 h; series mostly up to 57.3 µM
Results filed as inconclusive are left out. The source made the active and inactive calls. Calls follow the shape of the dose curve; as a rule, active = well fitted cell-killing curve with a large enough effect; inconclusive = small, poorly fitted or top-dose-only effect; inactive = flat fitted curve, though single readings scatter.
Classes to choose from: active, inactive

Solved entries (count: 5):
{"molecule": "Cc1cccc(-c2[nH]c(C(C)(C)C)nc2-c2ccc3nccnc3c2)n1", "label_class": "active"}
{"molecule": "CC(C)(Sc1ccc(CCN(CCCCC2CCCCC2)C(=O)NC2CCCCC2)cc1)C(=O)O", "label_class": "active"}
{"molecule": "Cc1cc(SCc2sc(-c3ccc(C(F)(F)F)cc3)nc2C)ccc1OCC(=O)O", "label_class": "inactive"}
{"molecule": "Cc1c(C)c2c(c(C)c1O)CCC(C)(COc1ccc(CC3SC(=O)NC3=O)cc1)O2 (centres undefined)", "label_class": "inactive"}
{"molecule": "COc1ccc2nc(S(=O)Cc3ncc(C)c(OC)c3C)[nH]c2c1 (centres undefined)", "label_class": "inactive"}

// param item: Cc1cc(-c2ccc(CC(=O)Nc3ccc(-c4cccnc4)cc3)cc2)ccn1 ; yields the recorded call
inactive

Test call for this molecule, please: Nc1nc2c(ncn2COCCO)c(=O)[nH]1
inactive

Tell me the recorded outcome of this test for NCCCC(N)(C(=O)O)C(F)F (centres undefined) .
inactive

Please share the test call associated with Cc1[nH]c(=O)c(C#N)cc1-c1ccc2nccn2c1 .
inactive
